Data provenance is patent US8828997B2.

system: AKT protein phosphorylated on serine 473 (P-AKT-S473) in PC3 human prostate carcinoma cells; assay: pAKT expression in PC3 human prostate carcinoma cells measured by MSD Multi-spot Biomarker detection (test B); assay type: cell-based; conditions: P-AKT-S473, PC3 cells, MSD sandwich immunoassay, 1 to 2 h incubation, absolute IC50
pIC50: −log10 of the molar value.
measure.name: pIC50

INSERT INTO results (compound, measure_name, measured_number) VALUES
  ('CC(c1ccccc1)N1c2nc(N3CCOCC3)cc(=O)n2C[C@@]1(C)C(F)(F)F (single isomer, unassigned) [Example 31]', 'pIC50', 7.22),
  ('CC(c1ccccc1)N1c2nc(N3CCOCC3)cc(=O)n2C[C@@]1(C)C(F)(F)F (single isomer, unassigned) [Example 32]', 'pIC50', 7.66),
  ('CC(c1ccccc1F)N1c2nc(N3CCOCC3)cc(=O)n2C[C@@]1(C)C(F)(F)F (single isomer, unassigned) [Example 36]', 'pIC50', 8.40),
  ('CC(c1ccccc1F)N1c2nc(N3CCOCC3)cc(=O)n2C[C@@]1(C)C(F)(F)F (single isomer, unassigned) [Example 37]', 'pIC50', 7.72);
